# Tested on: UISO
# EXPERIMENTAL PROTOCOL: qHTS assay to identify novel small-molecules to repurpose for Merkel cell carcinoma treatment (AID 1296009); also: nearly all actives have a fitted effect of over 60% in size; also: potency is read from the fitted curve at half-maximal effect
# MEASUREMENT CONDITIONS: MCC and control cell lines, CellTiter-Glo viability, 72 h; series mostly up to 46 µM
# Excerpt: MCC is a rare and aggressive neuroendocrine skin cancer with limited treatment options. Approximately 80% of MCCs have the Merkel cell polyomavirus (MCPyV) DNA integrated into the host genome (virus-positive: VP-MCC) and viral oncogenes drive oncogenesis. The remaining MCCs are virus-negative (VN-MCC) and are caused by UV mutagenesis. […] Using cell viability as a readout (CellTiter-Glo assay) we found both overlapping and distinct drugs that can be repurposed for the treatment of VP-MCC and VN-MCC. […]
Records with an inconclusive call do not appear. Activity calls are given as the source filed them. Calls follow the shape of the dose curve; as a rule, active = well fitted inhibition curve with a large enough effect; inconclusive = small, poorly fitted or top-dose-only effect; inactive = flat fitted curve, though single readings scatter.
PROPERTY MEASURED: Potency

These solved cases illustrate the format of a correct answer.
# MOLECULE, Potency
measured = [
    ("N#Cc1c(O)c2c(-c3ccc(-c4ccccc4O)cc3)csc2[nH]c1=O", "inactive"),
    ("C=C1C(=CC=C2CCCC3(C)[C@@H]([C@H](C)C=CC=CC(O)(CC)CC)CC[C@@H]23)C[C@@H](O)C[C@@H]1O (stereo not given in full)", "inactive"),
    ("CNc1nccc(-c2cccnc2Oc2cc(C(=O)Nc3cccc(C(F)(F)F)c3)ccc2C)n1", "inactive"),
    ("COc1ccc(-c2cc3c(C)nc(N)nc3n(C3CCC(OCCO)CC3)c2=O)cn1 (stereo not given)", "166 nM (active)"),
]

Next item in the queue.
Query: Supply recorded Potency for "CNC(=O)c1ccc(-c2cnc3ncc(Cc4ccc5ncccc5c4)n3n2)cc1F" here.
Result: inactive

* * *

Reported viability (% of control) by item:
# EXPERIMENTAL PROTOCOL: High-throughput drug toxicity screening in the BPDCN cell line Cal-1 (AID 1224825);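 also: cells exposed to compounds for 48 h; 100% = DMSO and 0% = bortezomib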
# MEASUREMENT CONDITIONS: Cal-1 BPDCN cell viability, qHTS; at 45.8 µM (top of the series) unless noted
Give your result in % as a bare value.

These solved cases illustrate the format of a correct answer.
# MOL SMILES, QUANTITATIVE READOUT
rows = [
    ("Cc1nc2cnc3ccc(C#Cc4cccnc4)cc3c2n1-c1ccc(C(C)(C)C#N)cc1", 16.6),
    ("O=C(Nc1ncc(-c2cc(C(F)F)nn2-c2c(Cl)cccc2Cl)s1)C1CC1", 9.09),
]

Next item in the queue.
Query: Supply recorded viability (% of control) for "Cc1cn(-c2cc(NC(=O)c3ccc(C)c(Nc4nccc(-c5cccnc5)n4)c3)cc(C(F)(F)F)c2)cn1" here.
Result: 101

* * *

# Test system: CP297
# EXPERIMENTAL PROTOCOL: qHTS profiling for inhibitors of Plasmodium falciparum proliferation (AID 504749); also: nearly all actives have a fitted effect of over 60% in size
# MEASUREMENT CONDITIONS: P. falciparum in erythrocytes, SYBR Green DNA, 72 h; series mostly up to 28.7 µM
Inconclusive results are not listed. Activity calls are given as the source filed them. The call rests on the fitted dose curve; in most records, active means well fitted inhibition curve with a large enough effect; inconclusive means small, poorly fitted or top-dose-only effect; inactive means flat fitted curve, though single readings scatter.
Log the outcome using a class from 1 (yes) = active, 0 (no) = inactive

Previously resolved entries follow.
# COMPOUND, DISCRETE LABEL
data = [
    ("Nc1ccn([C@@H]2O[C@H](CO)[C@H](O)C2(F)F)c(=O)n1", "1 (yes)"),
    ("Nc1ccc(S(=O)(=O)Nc2ncccn2)cc1", "0 (no)"),
]

Next compound, please.
Query: Tell me the recorded outcome of this test for O=c1[nH]c(=O)n(C2CCCO2)cc1F (stereo not drawn) .
Result: 0 (no)

* * *

# EXPERIMENTAL PROTOCOL: qHTS of pediatric cancer cell lines to identify multiple opportunities for drug repurposing: Confirmatory screen for A673 cells (AID 1347110);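 also: potency is read from the fitted curve at half-maximal effect; cells exposed to compound for 48 h before the viability read; nearly all actives have a fitted effect of over 65% in size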
# MEASUREMENT CONDITIONS: A673 Ewing sarcoma cell viability; series mostly up to 45.9 µM
Results filed as inconclusive are left out. Active and inactive are the calls of the source. The call rests on the fitted dose curve; in most records, active means well fitted cell-killing curve with a large enough effect; inconclusive means small, poorly fitted or top-dose-only effect; inactive means flat fitted curve, though single readings scatter.
Log the outcome using a class from active, inactive

# MOL SMILES, DISCRETE LABEL
rows = [
    ("Cc1[nH]c2ccccc2c1CCNCc1ccc(C=CC(=O)NO)cc1", "active"),
    ("C#Cc1cccc(Nc2ncnc3cc(OC)c(OCCCCCCC(=O)NO)cc23)c1", "active"),
    ("Cc1ccc(C(N)=O)cc1Nc1nccc(-c2cn(C(C)C)c3cnccc23)n1", "active"),
    ("COc1cc2nccc(Oc3ccc(NC(=O)C4(C(=O)Nc5ccc(F)cc5)CC4)cc3)c2cc1OC", "active"),
    ("CC(=O)OCC(=O)[C@@]1(O)[C@H](C)C[C@H]2[C@@H]3C=C(C)C4=Cc5c(cnn5-c5ccccc5)C[C@]4(C)[C@@H]3[C@@H](O)C[C@@]21C", "active"),
    ("CC(C)c1cnn2c(NCc3ccccc3)cc(N[C@@H](CO)[C@H](O)CO)nc12", "active"),
    ("COc1cc(=C2C=c3ccccc3=N2)[nH]c1=Cc1[nH]c(C)cc1C", "active"),
    ("COc1cc(Nc2ncc(F)c(Nc3ccc4c(n3)N(COP(=O)(O)O)C(=O)C(C)(C)O4)n2)cc(OC)c1OC", "active"),
]

Next molecule, please.
Query: Tell me the recorded outcome of this test for "C=CC(=O)Nc1cccc(Oc2nc(Nc3ccc(N4CCN(C)CC4)cc3)ncc2Cl)c1" .
Result: active

* * *

# Tested on: CP305
# EXPERIMENTAL PROTOCOL: qHTS profiling for inhibitors of Plasmodium falciparum proliferation (AID 504749); also: nearly all actives have a fitted effect of over 60% in size
# MEASUREMENT CONDITIONS: P. falciparum in erythrocytes, SYBR Green DNA, 72 h; series mostly up to 28.7 µM
Records with an inconclusive call do not appear. The source made the active and inactive calls. The call rests on the fitted dose curve; in most records, active means well fitted inhibition curve with a large enough effect; inconclusive means small, poorly fitted or top-dose-only effect; inactive means flat fitted curve, though single readings scatter.
Log the outcome using a class from active, inactive

Query: Tell me the recorded outcome of this test for CN1c2cc(O)c(N=NC(N)=O)cc2CC1S(=O)(=O)O (centres undefined) .
Result: inactive

Query: Tell me the recorded outcome of this test for "Nc1ccc(S(=O)(=O)Nc2ncccn2)cc1" .
Result: inactive

Query: Tell me the recorded outcome of this test for "CCC1=C[C@@H]2CN(C1)Cc1c([nH]c3ccccc13)[C@@](C(=O)OC)(c1cc3c(cc1OC)N(C)[C@@H]1[C@@](O)(C(=O)OC)[C@H](OC(C)=O)[C@]4(CC)C=CCN5CC[C@]31[C@@H]54)C2" .
Result: active

Query: Tell me the recorded outcome of this test for O=c1[nH]c(=O)n(C2CCCO2)cc1F (centres undefined) .
Result: inactive

Query: Tell me the recorded outcome of this test for "CC(C)(C)NC(=O)[C@H]1CN(Cc2cccnc2)CCN1C[C@@H](O)C[C@@H](Cc1ccccc1)C(=O)N[C@H]1c2ccccc2C[C@H]1O" .
Result: active

* * *

# EXPERIMENTAL PROTOCOL: Quantitative High-Throughput drug screen in 47 multiple myeloma cell lines against the NCATS MIPE library collection: FR4_PLB cell viability assay (AID 1918924; also: nearly all actives have a fitted effect of over 35% in size; also: potency is read from the fitted curve at half-maximal effect)
# MEASUREMENT CONDITIONS: FR4_PLB myeloma cells viability, CellTiter-Glo ATP, 48 h; series mostly up to 45.8 µM
Results filed as inconclusive are left out. Active and inactive are the calls of the source. Calls come from the whole dose curve; as a rule, active = well fitted cell-killing curve with a large enough effect; inconclusive = small, poorly fitted or top-dose-only effect, or effect the other way; inactive = no such curve, though single readings can be large or run the other way.
PROPERTY MEASURED: Potency

These solved cases illustrate the format of a correct answer.
# COMPOUND, PROPERTY MEASURED, RESULT
data = [
    ("CN[C@H]1CCc2cc(OC)c(OC)c(OC)c2-c2ccc(OC)c(=O)cc21", "Potency", "inactive"),
    ("CN1CCC(CNc2ccc3ncc(-c4cccc(OC(F)(F)F)c4)n3n2)CC1", "Potency", "18.7 µM (active)"),
    ("CC[C@H]1CN2CCc3cc(OC)c(OC)cc3[C@H]2C[C@@H]1C[C@@H]1NCCc2cc(OC)c(OC)cc21", "Potency", "0.372 µM (active)"),
    ("N#CCNC(=O)c1ccc(-c2ccnc(Nc3ccc(N4CCOCC4)cc3)n2)cc1", "Potency", "20.9 µM (active)"),
    ("COc1cccc(Nc2c(C(N)=O)cnc3c(C)cc(S(=O)(=O)c4cccc(C(=O)N(C)C)c4)cc23)c1", "Potency", "inactive"),
]

Next item in the queue.
Query: Supply recorded Potency for "Cc1c(NC(=O)OC[C@@H]2COCCN2)cn2ncnc(Nc3ccc4c(cnn4Cc4cccc(F)c4)c3)c12" here.
Result: 1.32 µM (active)

* * *

# Tested on: ATS189
# EXPERIMENTAL PROTOCOL: qHTS profiling for inhibitors of Plasmodium falciparum proliferation (AID 504749); also: nearly all actives have a fitted effect of over 60% in size
# MEASUREMENT CONDITIONS: P. falciparum in erythrocytes, SYBR Green DNA, 72 h; series mostly up to 28.7 µM
Results filed as inconclusive are left out. Activity calls are given as the source filed them. Calls come from the whole dose curve; as a rule, active = well fitted inhibition curve with a large enough effect; inconclusive = small, poorly fitted or top-dose-only effect; inactive = flat fitted curve, though single readings scatter.
Log the outcome using a class from active, inactive

Previously resolved entries follow.
# MOL SMILES, MEASURED ON, DISCRETE LABEL
measured = [
    ("Nc1ccn([C@@H]2O[C@H](CO)[C@H](O)C2(F)F)c(=O)n1", "ATS189", "active"),
    ("Nc1ccc(S(=O)(=O)Nc2ncccn2)cc1", "ATS189", "inactive"),
    ("O=C(O)CO.[NH2-].[NH2-].[Pt+2]", "ATS189", "inactive"),
    ("COc1c(N2C[C@@H]3CCCN[C@H]3C2)c(F)cc2c(=O)c(C(=O)O)cn(C3CC3)c12", "ATS189", "inactive"),
]

Query: Tell me the recorded outcome of this test for "CCC1=C[C@@H]2CN(C1)Cc1c([nH]c3ccccc13)[C@@](C(=O)OC)(c1cc3c(cc1OC)N(C)[C@@H]1[C@@](O)(C(=O)OC)[C@H](OC(C)=O)[C@]4(CC)C=CCN5CC[C@]31[C@@H]54)C2" .
Result: active

Query: Tell me the recorded outcome of this test for "CC=CC1=C(C(=O)O)N2C(=O)[C@H](NC(=O)[C@H](N)c3ccc(O)cc3)[C@@H]2SC1" .
Result: inactive

Query: Tell me the recorded outcome of this test for "COC(=O)C[C@](O)(CCCC(C)(C)O)C(=O)O[C@@H]1C(OC)=C[C@]23CCCN2CCc2cc4c(cc2[C@H]13)OCO4" .
Result: active

Query: Tell me the recorded outcome of this test for "CC[C@H]1CN2CCc3cc(OC)c(OC)cc3[C@H]2C[C@@H]1C[C@@H]1NCCc2cc(OC)c(OC)cc21" .
Result: active
